Where do these numbers come from? They come from paper PMC4818746.

# TARGET_UNDER_TEST: LRRK2-WT (Homo sapiens, UniProt Q5S007)
# Sequence (Q5S007 whole entry): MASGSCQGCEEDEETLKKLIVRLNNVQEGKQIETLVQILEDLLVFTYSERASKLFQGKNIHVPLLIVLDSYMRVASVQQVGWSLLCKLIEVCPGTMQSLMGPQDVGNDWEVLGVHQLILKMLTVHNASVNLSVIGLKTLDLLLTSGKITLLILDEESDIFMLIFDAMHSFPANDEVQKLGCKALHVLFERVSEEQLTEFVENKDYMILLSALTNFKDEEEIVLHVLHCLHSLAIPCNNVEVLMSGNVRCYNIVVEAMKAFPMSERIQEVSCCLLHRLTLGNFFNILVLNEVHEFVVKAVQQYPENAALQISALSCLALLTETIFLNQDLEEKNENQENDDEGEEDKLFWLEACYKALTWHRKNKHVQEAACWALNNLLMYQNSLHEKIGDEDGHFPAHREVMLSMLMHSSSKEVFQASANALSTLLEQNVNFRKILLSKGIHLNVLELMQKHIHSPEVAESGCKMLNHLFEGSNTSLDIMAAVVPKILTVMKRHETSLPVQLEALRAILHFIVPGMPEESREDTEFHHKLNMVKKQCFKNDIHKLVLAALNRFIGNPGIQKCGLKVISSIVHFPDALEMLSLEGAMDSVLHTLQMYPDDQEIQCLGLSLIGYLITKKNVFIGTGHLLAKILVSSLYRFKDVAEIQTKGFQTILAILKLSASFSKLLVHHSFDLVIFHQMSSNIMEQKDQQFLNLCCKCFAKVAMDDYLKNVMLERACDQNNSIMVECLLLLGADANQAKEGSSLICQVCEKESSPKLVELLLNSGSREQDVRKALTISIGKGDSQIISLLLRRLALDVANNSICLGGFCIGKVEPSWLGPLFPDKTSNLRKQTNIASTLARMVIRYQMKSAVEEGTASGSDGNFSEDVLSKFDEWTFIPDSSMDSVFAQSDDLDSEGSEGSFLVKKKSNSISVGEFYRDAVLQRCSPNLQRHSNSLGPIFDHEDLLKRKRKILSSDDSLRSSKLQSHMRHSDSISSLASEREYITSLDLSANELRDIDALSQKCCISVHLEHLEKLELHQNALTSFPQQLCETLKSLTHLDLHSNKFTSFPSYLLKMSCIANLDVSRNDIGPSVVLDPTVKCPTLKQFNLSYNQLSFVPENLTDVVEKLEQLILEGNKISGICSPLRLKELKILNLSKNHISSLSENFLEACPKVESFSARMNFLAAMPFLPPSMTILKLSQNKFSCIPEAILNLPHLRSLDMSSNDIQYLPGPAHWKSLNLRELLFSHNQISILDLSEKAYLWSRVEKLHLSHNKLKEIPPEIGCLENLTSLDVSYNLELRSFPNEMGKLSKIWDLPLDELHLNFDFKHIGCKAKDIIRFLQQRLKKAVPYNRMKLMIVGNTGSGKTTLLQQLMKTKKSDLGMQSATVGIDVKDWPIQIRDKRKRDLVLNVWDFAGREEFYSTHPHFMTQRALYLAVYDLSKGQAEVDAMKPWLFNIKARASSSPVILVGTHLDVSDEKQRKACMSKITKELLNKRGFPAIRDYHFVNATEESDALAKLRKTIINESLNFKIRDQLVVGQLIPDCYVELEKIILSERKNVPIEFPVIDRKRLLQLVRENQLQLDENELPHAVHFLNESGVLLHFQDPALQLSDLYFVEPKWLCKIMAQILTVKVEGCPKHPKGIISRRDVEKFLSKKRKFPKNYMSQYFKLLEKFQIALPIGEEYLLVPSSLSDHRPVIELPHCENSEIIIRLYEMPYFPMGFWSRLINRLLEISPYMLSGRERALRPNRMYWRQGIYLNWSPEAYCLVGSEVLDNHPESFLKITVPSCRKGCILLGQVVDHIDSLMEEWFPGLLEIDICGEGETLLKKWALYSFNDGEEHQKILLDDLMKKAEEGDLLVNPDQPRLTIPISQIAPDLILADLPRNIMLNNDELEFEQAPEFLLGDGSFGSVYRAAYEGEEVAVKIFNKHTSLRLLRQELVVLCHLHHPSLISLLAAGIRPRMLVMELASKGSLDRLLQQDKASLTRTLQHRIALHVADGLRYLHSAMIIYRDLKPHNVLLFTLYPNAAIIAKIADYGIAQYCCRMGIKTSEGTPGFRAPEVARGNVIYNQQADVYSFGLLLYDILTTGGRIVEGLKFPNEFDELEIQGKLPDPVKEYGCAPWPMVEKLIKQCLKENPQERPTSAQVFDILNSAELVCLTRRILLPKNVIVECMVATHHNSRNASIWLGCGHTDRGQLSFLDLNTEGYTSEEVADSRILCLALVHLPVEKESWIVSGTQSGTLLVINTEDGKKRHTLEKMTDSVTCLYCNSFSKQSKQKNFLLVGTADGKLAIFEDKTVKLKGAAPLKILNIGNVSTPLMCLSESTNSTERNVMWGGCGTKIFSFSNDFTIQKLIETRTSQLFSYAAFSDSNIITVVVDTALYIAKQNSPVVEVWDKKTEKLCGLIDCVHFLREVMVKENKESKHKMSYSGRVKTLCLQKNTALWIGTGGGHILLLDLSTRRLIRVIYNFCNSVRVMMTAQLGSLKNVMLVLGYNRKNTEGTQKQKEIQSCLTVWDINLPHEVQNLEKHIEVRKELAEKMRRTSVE
REPORTED_ENDPOINT: pIC50
Scale note: pIC50 = -log10(concentration in M).

Lab note: need pIC50 for `CC1=CC(=O)C(C(C)C)=CC1=O` on LRRK2-WT (Homo sapiens, UniProt Q5S007), anyone have it?
6.17
